System: FXR:RXRa (NR concentration 270 nM, RXRa partner concentration 90 nM)
Experiment: PBM binding z-score (relative to random genomic background probes); higher = stronger binding; sequences stand for … in GC…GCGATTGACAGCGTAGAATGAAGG
result_type: PBM binding z-score
Write no unit; give the number alone.

As a guide, the following entries are already answered.
{"sequence_chain": "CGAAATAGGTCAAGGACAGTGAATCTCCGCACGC", "measured_on": "FXR:RXRa (NR concentration 270 nM, RXRa partner concentration 90 nM)", "PBM binding z-score": 5.6}
{"sequence_chain": "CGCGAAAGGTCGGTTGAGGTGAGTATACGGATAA", "measured_on": "FXR:RXRa (NR concentration 270 nM, RXRa partner concentration 90 nM)", "PBM binding z-score": 2.66}
{"sequence_chain": "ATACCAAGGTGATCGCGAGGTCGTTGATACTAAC", "measured_on": "FXR:RXRa (NR concentration 270 nM, RXRa partner concentration 90 nM)", "PBM binding z-score": 1.6}

// moving on: another record for PBM binding z-score
GET /values?readout=PBM binding z-score&item= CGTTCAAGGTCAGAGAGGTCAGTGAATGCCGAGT 6.69

Origin of measurements: the supplement of paper PMC6555819
